MIC for assorted compounds
# Test system: V23 1322 Burkholderia cepacia
# Test details: MIC assay, CAMHB with alginate oligomer, no visible growth
# Assay type: cell-based
# Condition set: Table 5; V23 MDR Burk cep; OligoCF-5/20 +10% G
Marks after values point to notes of the source that are not given here.
Property name: MIC

{"Compound structure": "CC[C@H]1OC(=O)[C@H](C)[C@@H](O[C@H]2C[C@@](C)(OC)[C@@H](O)[C@H](C)O2)[C@H](C)[C@@H](O[C@@H]2O[C@H](C)C[C@H](N(C)C)[C@H]2O)[C@](C)(O)C[C@@H](C)CN(C)[C@H](C)[C@@H](O)[C@]1(C)O", "Target under test": "V23 1322 Burkholderia cepacia", "Result": "4 µg/mL"}
{"Compound structure": "O=C(O)c1cn(C2CC2)c2cc(N3CCNCC3)c(F)cc2c1=O", "Target under test": "V23 1322 Burkholderia cepacia", "Result": "32^† μg/ml"}
{"Compound structure": "CC[C@H]1OC(=O)[C@H](C)[C@@H](O[C@H]2C[C@@](C)(OC)[C@@H](O)[C@H](C)O2)[C@H](C)[C@@H](O[C@@H]2O[C@H](C)C[C@H](N(C)C)[C@H]2O)[C@](C)(OC)C[C@@H](C)C(=O)[C@H](C)[C@@H](O)[C@]1(C)O", "Target under test": "V23 1322 Burkholderia cepacia", "Result": "32^† μg/ml"}
{"Compound structure": "CC[C@H]1OC(=O)[C@H](C)[C@@H](O[C@H]2C[C@@](C)(OC)[C@@H](O)[C@H](C)O2)[C@H](C)[C@@H](O[C@@H]2O[C@H](C)C[C@H](N(C)C)[C@H]2O)[C@](C)(O)C[C@@H](C)C(=O)[C@H](C)[C@@H](O)[C@]1(C)O", "Target under test": "V23 1322 Burkholderia cepacia", "Result": "16^† μg/ml"}
{"Compound structure": "CC(C)(O/N=C(\\C(=O)N[C@@H]1C(=O)N2C(C(=O)[O-])=C(C[n+]3ccccc3)CS[C@H]12)c1csc(N)n1)C(=O)O", "Target under test": "V23 1322 Burkholderia cepacia", "Result": "<0.5^† μg/ml"}
{"Compound structure": "C[C@H]1[C@H](NC(=O)/C(=N\\OC(C)(C)C(=O)O)c2csc(N)n2)C(=O)N1S(=O)(=O)O", "Target under test": "V23 1322 Burkholderia cepacia", "Result": "128^† μg/ml"}
{"Compound structure": "C[C@@H](O)[C@H]1C(=O)N2C(C(=O)O)=C(S[C@@H]3CN[C@H](C(=O)N(C)C)C3)[C@H](C)[C@H]12", "Target under test": "V23 1322 Burkholderia cepacia", "Result": "8^† μg/ml"}
{"Compound structure": "CN(C)[C@@H]1C(O)=C(C(N)=O)C(=O)[C@@]2(O)C(O)=C3C(=O)c4c(O)cccc4[C@@](C)(O)[C@H]3[C@H](O)[C@@H]12", "Target under test": "V23 1322 Burkholderia cepacia", "Result": "32^† μg/ml"}
